Plant response rating, Rice for assorted molecules
system: rice (Oryza saliva); test: Test C flooded paddy test; assay type: in vivo; conditions: flooded paddy test, Rate 125 g/ha; scale 0 to 100 (0 no effect, 100 complete control)

molecule="CC1(c2ccn(C3SCN(c4cccc(C(F)(F)F)c4)C3=O)n2)CC1 (centres unmarked)" measured_result=20
molecule="COC(=O)c1cccc(N2CCC(n3ccc(C(C)(C)C)n3)C2=O)c1 (centres unmarked)" measured_result=20
molecule="CC(C)(C)c1ccn(C2SCN(c3cccc(C(F)(F)F)c3)C2=O)n1 (centres unmarked)" measured_result=0
molecule="CC(C)c1ccn(C2OCN(c3cccc(OC(F)(F)F)c3)C2=O)n1 (centres unmarked)" measured_result=40

Please find the next molecule below.
Problem: Name the recorded Plant response rating, Rice of the item CCC(CC)c1ccn(C2CCN(c3cccc(OC(C)C)c3)C2=O)n1 (centres unmarked) in your answer.
Result: 0

----------
tested on: bermudagrass (Cynodon dactylon); assay: Test C postemergence; format: in vivo; details: Rate 62 g/ha, scale 0 to 100
Recorded Plant response rating, Bermudagrass, one value per entry.

Example compounds with recorded Plant response rating, Bermudagrass:
compound="CCC(CC)c1ccn(C2CCN(c3ccc(Br)c(OC)c3)C2=O)n1 (stereo not drawn) [Compound 143]" measured_result=20
compound="COc1cc(N2CCC(n3ccc(C(C)(C)C)n3)C2=O)ccc1Br (stereo not drawn) [Compound 141]" measured_result=40
compound="CCC(CC)c1ccn(C2OCN(c3cccc(OC(F)F)c3)C2=O)n1 (stereo not drawn) [Compound 131]" measured_result=20
compound="O=C1C(n2ccc(C3CCC3)n2)SCN1c1cccc(OC(F)(F)F)c1 (stereo not drawn) [Compound 38]" measured_result=0
compound="CCC(C)c1ccn(C2SCN(c3cccc(OC(F)(F)F)c3)C2=O)n1 (stereo not drawn) [Compound 40]" measured_result=0

Problem: Given the compound COc1cc(N2CCC(n3ccc(C(C)C)n3)C2=O)ccc1C (stereo not drawn) [Compound 85] , write its reported Plant response rating, Bermudagrass.
Result: 0

----------
Listing of recorded Plant response rating (0 to 100), Velvetleaf by entry.
tested on: velvetleaf (Abutilon theophrasti); test: Test C preemergence; assay type: in vivo; settings: preemergence, Rate 500 g/ha, visual evaluation after 12 to 14 days
Excerpt: […]

Some solved entries appear below for comparison.
compound="CC1(c2ccn(C3SCN(c4cccc(C(F)(F)F)c4)C3=O)n2)CC1 (stereo not shown) [Compound 64]" tested_target="velvetleaf (Abutilon theophrasti)" measured_result=50
compound="CC1(c2ccn(C3OCN(c4cccc(C(F)(F)F)c4)C3=O)n2)CC1 (stereo not shown) [Compound 62]" tested_target="velvetleaf (Abutilon theophrasti)" measured_result=20
compound="CCCC(C)c1ccn(C2CCN(c3cccc(OCC)c3)C2=O)n1 (stereo not shown) [Compound 129]" tested_target="velvetleaf (Abutilon theophrasti)" measured_result=10
compound="CCC(C)c1ccn(C2CCN(c3cccc(OC)c3)C2=O)n1 (stereo not shown) [Compound 95]" tested_target="velvetleaf (Abutilon theophrasti)" measured_result=0
compound="CCC(C)Oc1cccc(N2CCC(n3ccc(C(C)(C)C)n3)C2=O)c1 (stereo not shown) [Compound 127]" tested_target="velvetleaf (Abutilon theophrasti)" measured_result=30

Problem: Please list Plant response rating (0 to 100), Velvetleaf recorded for the compound CCC(C)c1ccn(C2CCN(c3ccc(Br)c(OC)c3)C2=O)n1 (stereo not shown) [Compound 142]
Result: 100

Problem: Complete the entry with Plant response rating (0 to 100), Velvetleaf for CCC(C)c1ccn(C2OCN(c3cccc(OC(F)(F)F)c3)C2=O)n1 (stereo not shown) [Compound 67]
Result: 30

----------
tested on: giant foxtail (Setaria faberii); test: Test B preemergence; assay type: in vivo; settings: preemergence; Rate 125 g/ha; scale 0 to 100, 0 no effect, 100 complete control
PROPERTY: Plant response rating, Foxtail, Giant
Lab note: record just the number, no unit beside it.

Below, each entry is followed by its recorded Plant response rating, Foxtail, Giant result.
molecule="CC(C)c1ccn(C2OCN(c3cccc(C(F)(F)F)c3)C2=O)n1 (stereo not shown) [Compound 27]" measured_result=0
molecule="CC(C)(C)c1ccn(C2CCN(c3cccc(Cl)c3)C2=O)n1 (stereo not shown) [Compound 43]" measured_result=0
molecule="CC1CCc2cn(C3CCN(c4cccc(C(F)(F)F)c4)C3=O)nc21 (stereo not shown) [Compound 11]" measured_result=0

Problem: Item CCC(CC)c1ccn(C2SCN(c3cccc(C(F)(F)F)c3)C2=O)n1 (stereo not shown) [Compound 21] : provide Plant response rating, Foxtail, Giant
Result: 70

Problem: Could you please provide reported Plant response rating, Foxtail, Giant for O=C1C(n2cc(Cl)c(C3CC3)n2)CCN1c1cccc(C(F)(F)F)c1 (stereo not shown) [Compound 12] ? Thanks!
Result: 0

Problem: Provide one value: measured Plant response rating, Foxtail, Giant of CC(C)(C)c1ccn(C2CCN(c3cccc(Br)c3)C2=O)n1 (stereo not shown) [Compound 33]
Result: 20

Problem: Give a short answer stating reported Plant response rating, Foxtail, Giant for O=C1C(n2ccc(C3CC3)n2)OCN1c1cccc(C(F)(F)F)c1 (stereo not shown) [Compound 28] .
Result: 20

Problem: Item CC(C)(C)c1nn(C2CCN(c3cccc(C(F)(F)F)c3)C2=O)cc1Cl (stereo not shown) [Compound 14] : provide Plant response rating, Foxtail, Giant
Result: 0

Problem: Identify measured Plant response rating, Foxtail, Giant corresponding to CCC(C)c1ccn(C2OCN(c3cccc(C(F)(F)F)c3)C2=O)n1 (stereo not shown) [Compound 24]
Result: 90

Problem: Could you please provide reported Plant response rating, Foxtail, Giant for CCC(C)c1ccn(C2SCN(c3cccc(OC(F)(F)F)c3)C2=O)n1 (stereo not shown) [Compound 40] ? Thanks!
Result: 70

Problem: Using known records, supply Plant response rating, Foxtail, Giant for O=C1C(n2ccc(C3CCC3)n2)SCN1c1cccc(C(F)(F)F)c1 (stereo not shown) [Compound 37]
Result: 40

Problem: Please list Plant response rating, Foxtail, Giant recorded for the molecule CC(C)(C)c1ccn(C2SCN(c3cccc(OC(F)F)c3)C2=O)n1 (stereo not shown) [Compound 36]
Result: 100

Problem: Fill in reported Plant response rating, Foxtail, Giant for this entry: COc1cc(N2CCC(n3ccc(C(C)(C)C)n3)C2=O)ccc1C (stereo not shown) [Compound 42]
Result: 100

----------
Test system: crabgrass (Digitaria sanguinalis)
Test: Test B postemergence
Format: in vivo
Details: Rate 125 g/ha, scale 0 (no effect) to 100 (complete control), 13 to 15 days
Protocol: […] At the same time, plants selected from these crop and weed species and also blackgrass (Alopecurus myosuroides), wheat (Triticum aestivum) and wild oat (Avena fatua) were treated with postemergence applications of test chemicals formulated in the same manner. […] Treated plants and controls were maintained in a greenhouse for 13 to 15 days, after which time all species were compared to controls and visually evaluated. […]
PROPERTY: Plant response rating, Crabgrass
Enter the number alone.

Please review the entries below; each comes with its answer.
compound="O=C1C(n2ccc(C3CCC3)n2)SCN1c1cccc(OC(F)(F)F)c1 (stereo not shown) [Compound 38]" tested_target="crabgrass (Digitaria sanguinalis)" property="Plant response rating, Crabgrass" measured_result=60
compound="CC(C)(C)c1ccn(C2CCN(c3ccc(F)c(Cl)c3)C2=O)n1 (stereo not shown) [Compound 46]" tested_target="crabgrass (Digitaria sanguinalis)" property="Plant response rating, Crabgrass" measured_result=0
compound="CC1CCc2cn(C3CCN(c4cccc(C(F)(F)F)c4)C3=O)nc21 (stereo not shown) [Compound 11]" tested_target="crabgrass (Digitaria sanguinalis)" property="Plant response rating, Crabgrass" measured_result=0
compound="Cc1ccc(N2CCC(n3ccc(C(C)(C)C)n3)C2=O)cc1OC(F)F (stereo not shown) [Compound 79]" tested_target="crabgrass (Digitaria sanguinalis)" property="Plant response rating, Crabgrass" measured_result=0

Problem: Read off the recorded Plant response rating, Crabgrass for CCCC(C)c1ccn(C2SCN(c3cccc(OC(F)(F)F)c3)C2=O)n1 (stereo not shown) [Compound 90]
Result: 20

Problem: Read the entry COc1cccc(N2CCC(n3ccc(C(C)(C)C)n3)C2=O)c1 (stereo not shown) [Compound 87] and write its reported Plant response rating, Crabgrass.
Result: 0

Problem: Input CC(C)(C)c1ccn(C2CCN(c3ccc(F)c(Br)c3)C2=O)n1 (stereo not shown) [Compound 75] , output reported Plant response rating, Crabgrass.
Result: 0

----------
test system: pigweed (Amaranthus retroflexus); test: Test C preemergence; format: in vivo; conditions: preemergence; Rate 125 g/ha; scale 0 to 100, 0 no effect, 100 complete control
Excerpt: […]
PROPERTY: Plant response rating, Pigweed
Could you respond with only the numeric value?

Guide cases for Plant response rating, Pigweed, answers given:
compound="CCC(CC)c1ccn(C2SCN(c3cccc(C(F)(F)F)c3)C2=O)n1 (centres unmarked)" measured_result=100
compound="CC(C)(C)c1ccn(C2CCN(c3ccc(Cl)c(Br)c3)C2=O)n1 (centres unmarked)" measured_result=90
compound="COc1cc(N2CCC(n3ccc(C(C)(C)C)n3)C2=O)ccc1C (centres unmarked)" measured_result=100

Problem: Give Plant response rating, Pigweed for this entry on pigweed (Amaranthus retroflexus): O=C1C(n2ccc(C3CCC3)n2)SCN1c1cccc(OC(F)(F)F)c1 (centres unmarked)
Result: 0

Problem: Find Plant response rating, Pigweed for CC(C)(C)c1ccn(C2CCN(c3ccc(Cl)c(Cl)c3)C2=O)n1 (centres unmarked) on pigweed (Amaranthus retroflexus) and write it down.
Result: 100

Problem: # lookup: pigweed (Amaranthus retroflexus) Plant response rating, Pigweed, key = CC(C)(C)c1ccn(C2SCN(c3cccc(OC(F)(F)F)c3)C2=O)n1 (centres unmarked)
Result: 50

Problem: Specify Plant response rating, Pigweed for CCOC(=O)c1cccc(N2CCC(n3ccc(C(C)(C)C)n3)C2=O)c1 (centres unmarked) , system pigweed (Amaranthus retroflexus).
Result: 100

Problem: Would you please give the reported Plant response rating, Pigweed of CC(C)(C)c1ccn(C2CCN(c3cccc(Cl)c3)C2=O)n1 (centres unmarked) with pigweed (Amaranthus retroflexus)?
Result: 0

Problem: Report Plant response rating, Pigweed on pigweed (Amaranthus retroflexus) for this entry: CC1(c2ccn(C3OCN(c4cccc(C(F)(F)F)c4)C3=O)n2)CC1 (centres unmarked)
Result: 0

Problem: Fill in Plant response rating, Pigweed for O=C1C(n2ccc(C3CCCCC3)n2)SCN1c1cccc(OC(F)(F)F)c1 (centres unmarked) tested with pigweed (Amaranthus retroflexus).
Result: 20

Problem: Look up and report measured Plant response rating, Pigweed (pigweed (Amaranthus retroflexus)) for the following compound: O=C1C(n2ccc(C3CCCCC3)n2)OCN1c1cccc(C(F)(F)F)c1 (centres unmarked)
Result: 0
